# target_or_system: HRgpA-6H (Porphyromonas gingivalis) (UniProt P28784)
# assay_summary: ELISA, coated HRgpA-6H
metric_name: Ratio OD(Variant)/OD(WT)

Worked cases, Ratio OD(Variant)/OD(WT) given:
According to the records, this binder KB001 mouse Fab VL T100R (Fab, V domains shown) VH: EVQLKQSGPGLVAPSQSLSITCTVSGFSLSIYSVHWVRQPPGKGLEWLGMIWGGGSSDYNSALKSRLSISKDNSKSQVFLKMNSLQTDDTAMYYCARNGNFYAMDYWGQGTSVTVSS VL: QIVLTQSPAIMSASLGERVTMTCTASSSVSSSFLHWYQQKPGSSPQLWIYSTSNLASGVPARFSGSGSGTSYSLTISSMEAEDAATYYCHQYHHSPYIYRFGGGTKLEIK displays Ratio OD(Variant)/OD(WT) of 1.18

Sure, the documented Ratio OD(Variant)/OD(WT) for KB001 mouse Fab VL S28G (Fab, V domains shown) VH: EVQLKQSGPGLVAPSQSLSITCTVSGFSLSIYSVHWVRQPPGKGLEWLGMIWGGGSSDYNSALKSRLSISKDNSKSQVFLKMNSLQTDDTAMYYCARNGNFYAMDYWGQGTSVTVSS VL: QIVLTQSPAIMSASLGERVTMTCTASSGVSSSFLHWYQQKPGSSPQLWIYSTSNLASGVPARFSGSGSGTSYSLTISSMEAEDAATYYCHQYHHSPYIYTFGGGTKLEIK is 1.09

// recorded Ratio OD(Variant)/OD(WT) for KB001 mouse Fab VL T52M (Fab, V domains shown) VH: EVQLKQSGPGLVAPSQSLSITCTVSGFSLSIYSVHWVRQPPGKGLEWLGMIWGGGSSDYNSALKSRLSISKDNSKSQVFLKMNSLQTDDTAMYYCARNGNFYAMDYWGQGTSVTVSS VL: QIVLTQSPAIMSASLGERVTMTCTASSSVSSSFLHWYQQKPGSSPQLWIYSMSNLASGVPARFSGSGSGTSYSLTISSMEAEDAATYYCHQYHHSPYIYTFGGGTKLEIK : 0.841

For record KB001 mouse Fab VL H90W (Fab, V domains shown) VH: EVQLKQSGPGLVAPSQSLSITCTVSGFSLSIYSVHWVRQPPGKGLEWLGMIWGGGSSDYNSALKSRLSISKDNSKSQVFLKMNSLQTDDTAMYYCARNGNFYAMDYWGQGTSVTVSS VL: QIVLTQSPAIMSASLGERVTMTCTASSSVSSSFLHWYQQKPGSSPQLWIYSTSNLASGVPARFSGSGSGTSYSLTISSMEAEDAATYYCWQYHHSPYIYTFGGGTKLEIK the listed Ratio OD(Variant)/OD(WT) is 1.06

// field: Ratio OD(Variant)/OD(WT); key: KB001 mouse Fab VH S61L (Fab, V domains shown) VH: EVQLKQSGPGLVAPSQSLSITCTVSGFSLSIYSVHWVRQPPGKGLEWLGMIWGGGSSDYNLALKSRLSISKDNSKSQVFLKMNSLQTDDTAMYYCARNGNFYAMDYWGQGTSVTVSS VL: QIVLTQSPAIMSASLGERVTMTCTASSSVSSSFLHWYQQKPGSSPQLWIYSTSNLASGVPARFSGSGSGTSYSLTISSMEAEDAATYYCHQYHHSPYIYTFGGGTKLEIK ; value = 0.908

For record KB001 mouse Fab VL S27Y (Fab, V domains shown) VH: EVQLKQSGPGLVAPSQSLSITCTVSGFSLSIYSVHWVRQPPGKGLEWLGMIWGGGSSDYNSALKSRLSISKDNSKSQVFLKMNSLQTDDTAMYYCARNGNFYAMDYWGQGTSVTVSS VL: QIVLTQSPAIMSASLGERVTMTCTASYSVSSSFLHWYQQKPGSSPQLWIYSTSNLASGVPARFSGSGSGTSYSLTISSMEAEDAATYYCHQYHHSPYIYTFGGGTKLEIK the listed Ratio OD(Variant)/OD(WT) is 0.822

Recorded Ratio OD(Variant)/OD(WT) (binder KB001 mouse Fab VH A103S (Fab, V domains shown) VH: EVQLKQSGPGLVAPSQSLSITCTVSGFSLSIYSVHWVRQPPGKGLEWLGMIWGGGSSDYNSALKSRLSISKDNSKSQVFLKMNSLQTDDTAMYYCARNGNFYSMDYWGQGTSVTVSS VL: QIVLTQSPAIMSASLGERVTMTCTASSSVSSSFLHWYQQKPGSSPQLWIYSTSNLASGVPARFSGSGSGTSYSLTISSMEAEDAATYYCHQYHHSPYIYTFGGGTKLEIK ): 1.05

Entry KB001 mouse Fab VH S61H (Fab, V domains shown) VH: EVQLKQSGPGLVAPSQSLSITCTVSGFSLSIYSVHWVRQPPGKGLEWLGMIWGGGSSDYNHALKSRLSISKDNSKSQVFLKMNSLQTDDTAMYYCARNGNFYAMDYWGQGTSVTVSS VL: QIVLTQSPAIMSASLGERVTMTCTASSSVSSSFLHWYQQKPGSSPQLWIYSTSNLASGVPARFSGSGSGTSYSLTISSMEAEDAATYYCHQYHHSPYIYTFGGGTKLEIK ; Ratio OD(Variant)/OD(WT) = 0.95

New cases:
Lookup result for KB001 mouse Fab VL T52K (Fab, V domains shown) VH: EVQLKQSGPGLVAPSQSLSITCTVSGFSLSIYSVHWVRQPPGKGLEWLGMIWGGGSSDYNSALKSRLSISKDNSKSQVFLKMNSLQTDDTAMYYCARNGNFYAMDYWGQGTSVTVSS VL: QIVLTQSPAIMSASLGERVTMTCTASSSVSSSFLHWYQQKPGSSPQLWIYSKSNLASGVPARFSGSGSGTSYSLTISSMEAEDAATYYCHQYHHSPYIYTFGGGTKLEIK ; measured Ratio OD(Variant)/OD(WT): 0.865

The binder KB001 mouse Fab VL T100D (Fab, V domains shown) VH: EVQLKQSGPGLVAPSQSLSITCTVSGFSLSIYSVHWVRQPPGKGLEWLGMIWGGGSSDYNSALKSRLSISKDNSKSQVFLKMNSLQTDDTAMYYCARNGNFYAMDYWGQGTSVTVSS VL: QIVLTQSPAIMSASLGERVTMTCTASSSVSSSFLHWYQQKPGSSPQLWIYSTSNLASGVPARFSGSGSGTSYSLTISSMEAEDAATYYCHQYHHSPYIYDFGGGTKLEIK showed Ratio OD(Variant)/OD(WT) equal to 1.23
